Listed below: TGI values for each entry.
system: SF-295 CNS; test: NCI tumour cell line growth inhibition, 48 h

Study these solved cases before continuing.
Q) Any idea what TGI was measured for COc1cc(C(=O)/C=C/c2ccc(OCCSCCCCCCCCCCSCCOc3ccc(/C=C/C(=O)c4cc(OC)c(OC)c(OC)c4)cc3)cc2)cc(OC)c1OC ?
A) > 100 µM

Q) Can you handle Cn1c2ccccc2n2c3ncccc3c(=NCCCC(=O)O)c(C#N)c12 next?
A) > 100 µM

Q) Subsequent entry: c1cnn(C23C4C5C6C4C2C6C53)c1 (centres undefined)
A) > 100 µM

New cases:
Q) TGI for O=C(O)/C=C/C(=O)N1Cc2cc3ccccc3nc2C1 ?
A) > 100 µM

Q) Moving on to COC(=O)[C@@H](C)C[C@H](Cc1cn(C)c2ccccc12)NC(=O)c1csc([C@@H](C[C@H](C(C)C)N(C)C(=O)[C@@H](NC(=O)[C@H]2CCCCN2C)C(C)C)OC(C)=O)n1
A) > 16.7 µM

Q) Next entry: Nc1cc(F)ccc1CC(=O)O
A) > 100 µM

Q) Same for O=C(O)CSC(CC1(c2ccc(Cl)cc2)NC(=O)CS1)c1ccc(Cl)cc1 (centres undefined)
A) > 100 µM

Q) Please do the same for Nc1c(-c2cn(Cc3ccccc3)c3ccccc23)[n+]([O-])c2ccccc2[n+]1[O-] as well.
A) 88.7 µM

Q) And for Cc1cccc(-c2[nH]ncc2-c2ccc3ncccc3n2)n1 ?
A) > 25 µM
